Origin of measurements: patent US12630547B2

- Test system: MOLM-13 cells
- protocol details: Cell viability assay (CELLTITER-GLO), MOLM-13 cells
- Format: cell-based
- reported conditions: Homo sapiens, MOLM-13, 72 h; Table 2; compound at 10 μM, 3 days; read-out: Effect on MOLM-13 cell viability (% DMSO)
value kind: viability at 10 µM

Please review the entries below; each comes with its answer.
C=CC(=O)N1CCN(c2ncnc3c(F)c(-c4c(F)cccc4OCCCCCCCN4CCC(c5cc(F)cc6c5CN(C5CCC(=O)NC5=O)C6=O)CC4)c(Cl)cc23)CC1 (stereo not drawn) [Compound 36] = < 10%
CCC(=O)N1CCN(c2ncnc3c(F)c(-c4c(F)cccc4OCCC4CCC(CCN5CCC(c6cc(F)cc7c6CN(C6CCC(=O)NC6=O)C7=O)CC5)CC4)c(Cl)cc23)CC1 (stereo not drawn) [Compound 84] = < 10%

Pending compound:
// returns reported viability at 10 µM for input C=CC(=O)N1CCN(c2ncnc3c(F)c(-c4c(F)cccc4OCCCCCCCCCCC(=O)N[C@H](C(=O)N4C[C@H](O)C[C@H]4C(=O)NCc4ccc(-c5scnc5C)cc4)C(C)(C)C)c(Cl)cc23)CC1 [Compound 76] < 10%
